Test system: Klebsiella pneumoniae
Test: In vitro antibacterial activity, MIC by broth dilution
Format: cell-based
Conditions: 20-72 hours at 37° C., Nutrient Broth
readoutLabel: MIC, Kp (µM)
Answers are plain numbers, in µM.

Here are 3 compounds. What values of MIC, Kp were reported for them?
1. COc1ccc(C(=O)CN2CCN(c3cc4c(cc3F)c(=O)c(C(=O)O)cn4-c3ccc(N)cc3F)CC2)cc1
2. CC1COc2c(N3CCN(C)CC3)c(F)cc3c(=O)c(C(=O)O)cn1c23 (stereo not drawn) [Ofloxacin, reference compound]
3. CCn1cc(C(=O)O)c(=O)c2cc(F)c(N3CCN(CC(C)NN)CC3)cc21 (stereo not drawn)

### Response
1: 0.05; 2: 0.036; 3: 0.064

Cited source for all entries: patent US6492373B2
